assay: reversal of MRP1-mediated doxorubicin resistance, pilot screen, H69AR cells, doxorubicin co-treatment (AID 601); details: H69AR cells, CellTiter-Glo, 72 h; compound alone cytotoxicity; at 10 µM
Doc: threshold 90% (exclusive). Items with viability beneath it return y; others return n.

CSc1nnc(-c2ccc(NC(=O)CCc3ccccc3)cc2)n1C; y
CCOC(=O)c1c(C)n(C)c2ccc(OC)c(NC(=O)CCN3CCSCC3)c12; y
Cc1ccc(S(=O)(=O)Cc2ccc(C(=O)NCc3ccc4c(c3)OCO4)o2)cc1; n
O=C(CSc1nc2[nH]ncc2c(=O)n1-c1ccccc1Br)NCc1ccco1; y
CCOC(=O)Nc1c(C(=O)OC)[nH]c2cccc(OC)c12; n
CC1CN(C(=O)CSc2nnc(-c3ccncc3)n2-c2ccccc2)CC(C)O1 (stereo unspecified); n

Moving on to another compound below.
Exercise: Please state whether viability is below 90% for "COC(=O)C1CCN(C(=O)NC(C)(C)C)CC1"
Solution: n

---

assay: SK-BR-3 cell growth inhibitors, pilot screen, 24 h, human (AID 572); details: SK-BR-3 viability, CellTiter-Glo luminescence, at 10 µM, stronger effect = lower value;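 note: compound exposure lasted between 18 and 24 h rather than exactly 24 h; 100% = carrier-treated control wells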
Doc: threshold 90% (exclusive). Items with viability beneath it return YES; others return NO.

Example cases with answers are listed next.
CC1Oc2ccccc2N(CC(=O)N(Cc2ccccc2)Cc2ccccn2)C1=O (stereo unspecified); NO
CC(C)=CC(=O)Nc1ccc(Br)cc1; YES
COc1ccc(CNC(=O)CCc2nc(-c3ccccc3F)no2)c(OC)c1; YES

Exercise: Please state whether viability is below 90% for "COc1ccccc1N(CC(=O)NCc1ccccc1)S(C)(=O)=O"
Solution: NO

Exercise: Please state whether viability is below 90% for "COc1ccccc1Nc1ncnc2c1cnn2-c1cccc(C)c1"
Solution: NO

Exercise: Please state whether viability is below 90% for "CN1CCN(CC(=O)Nc2ccc(Cl)cc2Cl)CC1"
Solution: YES

Exercise: Please state whether viability is below 90% for "Cc1cc(=O)n2[nH]c(COc3ccccc3)nc2n1"
Solution: NO

Exercise: Please state whether viability is below 90% for CC1=C(C(=O)Nc2ccccc2)C(c2cccs2)C(C#N)=C(SCC#N)N1 (stereo unspecified)
Solution: NO

Exercise: Please state whether viability is below 90% for Cc1ccc(-c2noc(C3CCCN(C(=O)c4ccccc4)C3)n2)o1 (stereo unspecified)
Solution: YES

---

molecular target: Receptor tyrosine-protein kinase erbB-2 (Homo sapiens) (UniProt P04626); assay: reducers of endogenous Her2 protein level, primary screen, SKBR3 breast tumor cells, AlphaScreen, ATP viability (AID 461); conditions: 18-24 h, at 10 µM, stronger effect = lower value;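 note: lower value means less Her2 protein in the cells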
Sequence (P04626 whole entry, looked up): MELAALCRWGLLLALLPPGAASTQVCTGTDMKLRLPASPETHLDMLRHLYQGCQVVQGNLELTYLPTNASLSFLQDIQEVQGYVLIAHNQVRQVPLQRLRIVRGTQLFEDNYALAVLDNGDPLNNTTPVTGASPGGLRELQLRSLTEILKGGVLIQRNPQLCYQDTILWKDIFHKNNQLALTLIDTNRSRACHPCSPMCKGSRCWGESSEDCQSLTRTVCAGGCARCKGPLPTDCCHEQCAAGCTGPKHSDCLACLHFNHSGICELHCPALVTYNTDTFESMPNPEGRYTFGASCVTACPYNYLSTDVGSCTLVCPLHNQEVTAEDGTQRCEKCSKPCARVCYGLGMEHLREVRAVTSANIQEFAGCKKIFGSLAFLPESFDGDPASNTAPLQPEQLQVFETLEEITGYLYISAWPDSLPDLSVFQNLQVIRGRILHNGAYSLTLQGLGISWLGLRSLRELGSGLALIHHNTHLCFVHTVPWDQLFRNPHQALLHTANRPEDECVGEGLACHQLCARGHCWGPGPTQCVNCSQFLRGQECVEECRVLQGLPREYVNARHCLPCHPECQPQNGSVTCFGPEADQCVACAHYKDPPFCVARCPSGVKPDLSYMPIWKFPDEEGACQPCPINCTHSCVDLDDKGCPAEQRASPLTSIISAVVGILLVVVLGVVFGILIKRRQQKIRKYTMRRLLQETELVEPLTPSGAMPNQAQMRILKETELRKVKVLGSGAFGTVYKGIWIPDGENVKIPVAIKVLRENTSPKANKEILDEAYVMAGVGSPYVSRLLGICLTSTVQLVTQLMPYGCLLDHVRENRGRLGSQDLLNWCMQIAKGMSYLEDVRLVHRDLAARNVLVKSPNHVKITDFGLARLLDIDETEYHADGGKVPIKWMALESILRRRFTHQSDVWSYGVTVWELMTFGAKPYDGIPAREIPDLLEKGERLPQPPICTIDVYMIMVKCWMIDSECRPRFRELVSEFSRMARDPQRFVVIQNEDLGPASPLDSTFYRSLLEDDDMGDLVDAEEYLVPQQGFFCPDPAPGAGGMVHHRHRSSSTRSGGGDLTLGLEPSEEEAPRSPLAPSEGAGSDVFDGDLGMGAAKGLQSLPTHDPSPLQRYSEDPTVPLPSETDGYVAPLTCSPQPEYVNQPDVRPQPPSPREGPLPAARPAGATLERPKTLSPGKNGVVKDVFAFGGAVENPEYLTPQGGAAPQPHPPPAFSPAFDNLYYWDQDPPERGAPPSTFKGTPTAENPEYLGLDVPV
recordedMetric: Her2 level (%)
The reply should contain only the number, in %.

Recorded results for 5 compounds are shown here.
COc1cccc(-c2cc(C(=O)NCc3ccc(Cl)cc3)no2)c1; 94
COc1ccc(C2(C(=O)N3CCCC3)CCOCC2)cc1OC; 126
C=CC(O)(C#CCN(CC)CC)c1ccccc1 (centres undefined); 89
O=C(c1ccccc1)c1ccc2nc[nH]c2c1; 89.5
CCN(CC)C(=O)CN(c1cc(Cl)ccc1OC)S(C)(=O)=O; 89.5

Exercise: What measured Her2 level goes with "O=C(NCCO)c1scc2c1OCCO2" ?
Solution: 92

Exercise: What measured Her2 level goes with CCC(=O)N1CCc2cc(Br)cc(S(=O)(=O)CCC(=O)NCC3CCCO3)c21 (centres undefined) ?
Solution: 90

Exercise: What measured Her2 level goes with "CN(C(=O)c1ccccn1)c1nnc(-c2ccncc2)s1" ?
Solution: 92.5

Exercise: What measured Her2 level goes with "O=C(CCC(=O)N1CCc2ccccc2C1)N1CCN(S(=O)(=O)c2ccccc2)CC1" ?
Solution: 116

Exercise: What measured Her2 level goes with CCn1c(SCC(=O)c2ccc(OC)cc2)nnc1C(C)NC(=O)c1ccc(OC)cc1 (centres undefined) ?
Solution: 106

Exercise: What measured Her2 level goes with "NCc1cccc(-n2cccn2)c1" ?
Solution: 103

Exercise: What measured Her2 level goes with "CCNC(=O)CC(=O)Nc1ccccc1C(=O)O" ?
Solution: 99.5

Exercise: What measured Her2 level goes with CC(=O)Nc1ccc(S(=O)(=O)N2CCN(C(C)CCc3ccccc3)CC2)cc1 (centres undefined) ?
Solution: 98.5

Exercise: What measured Her2 level goes with "CCOC(=O)c1[nH]cc(-c2ccccc2)c1N1CCOCC1" ?
Solution: 89.5

Exercise: What measured Her2 level goes with "O=c1c2ccccc2nnn1CSc1nc2cc(Cl)ccc2c(=O)n1Cc1ccco1" ?
Solution: 104

Exercise: What measured Her2 level goes with "Cc1nnc(SCc2cnc(-c3ccccc3)o2)[nH]c1=O" ?
Solution: 86

Exercise: What measured Her2 level goes with "CCOC(=O)CSc1nnc([C@H](C)NC(=O)OC(C)(C)C)o1" ?
Solution: 97

Exercise: What measured Her2 level goes with "CCN(CC)Cc1nc2c(c(=O)[nH]1)C1(CCCCC1)Cc1ccccc1-2" ?
Solution: 82.5

Exercise: What measured Her2 level goes with "CC(=O)c1ccc(OC(=O)c2cccs2)cc1" ?
Solution: 94.5

---

experiment: reversal of MRP1-mediated doxorubicin resistance, pilot screen, H69AR cells, doxorubicin co-treatment (AID 601); settings: H69AR cells, CellTiter-Glo, 72 h; compound alone cytotoxicity; at 10 µM
Recorded viability by entry
The reply should contain only the number, in %.

Cc1cc(C)nc(NC(=O)c2c(-c3c(Cl)cccc3Cl)noc2C)n1; 85.1
O=C(CN1CCN(C(=O)c2ccccc2)CC1)Nc1ncc(Br)cc1Br; 77.9
Cn1c(SCc2nc3ccccc3c(=O)[nH]2)nnc1-c1ccco1; 96
Cc1sc2nc(CN3CCN(S(=O)(=O)c4cccc5nonc45)CC3)[nH]c(=O)c2c1C; 87.9

Would you kindly look at the next entry?
Exercise: What measured viability goes with "COc1cc(C(=O)Nc2cc(Cl)ccc2C)c(-n2cnnn2)cc1OC" ?
Solution: 94.9

---

Recorded Her2 level by entry
biological target: Receptor tyrosine-protein kinase erbB-2 (Homo sapiens); assay: reducers of endogenous Her2 protein level, primary screen, SKBR3 breast tumor cells, AlphaScreen, ATP viability (AID 461); settings: 18-24 h, at 10 µM, stronger effect = lower value;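 note: lower value means less Her2 protein in the cells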
The reply should contain only the number, in %.

Recorded results for 2 compounds are shown here.
COc1ccc(C(=O)Cn2c(N3CCCCC3)nc3c2c(=O)n(C)c(=O)n3C)cc1OC; 98.5
CCn1nc(NC(=O)c2cccnc2)c2cc3ccccc3nc21; 70.5

Would you kindly look at the next entry?
Exercise: What measured Her2 level goes with "CC1=C(C#N)C(=O)NC(C)(C)C1" ?
Solution: 102

---

test: 384-well plate pilot, post-Golgi transport modulator project, inhibition of yeast transport mutant growth (AID 636); conditions: absorbance 615 nm, about 18 h, stronger effect = higher value
Recorded inhibition by entry
The reply should contain only the number, in %.

COc1cccc(NC(=O)N[C@@H](Cc2ccccc2)C(=O)O)c1; -4.46

Exercise: What measured inhibition goes with "N#Cc1c(-c2ccccc2)nc(SCc2nc(N)nc(N3CCCCC3)n2)[nH]c1=O" ?
Solution: -6

Exercise: What measured inhibition goes with Cc1ccc(CCNC(=O)CC2Oc3ccc(C)cc3NC2=O)cc1 (stereo not given) ?
Solution: 5.47

Exercise: What measured inhibition goes with CC(NS(=O)(=O)c1ccccc1)C(c1cccs1)N1CCN(C)CC1 (stereo not given) ?
Solution: -5

Exercise: What measured inhibition goes with "Cc1noc(C)c1CSc1nc2cc(S(=O)(=O)N3CCOCC3)ccc2o1" ?
Solution: -5.48

Exercise: What measured inhibition goes with "c1ccc(-c2cc3c(nn2)CCc2nonc2-3)cc1" ?
Solution: 0

Exercise: What measured inhibition goes with COc1ccc(NC2c3ncccc3C(=O)N2Cc2ccccc2)c(OC)c1 (stereo not given) ?
Solution: -1.56

Exercise: What measured inhibition goes with "Cc1nnc(SCC(=O)N2CCN(S(=O)(=O)c3ccccc3)CC2)[nH]c1=O" ?
Solution: -6.67

Exercise: What measured inhibition goes with "Cc1cccc(Cc2nnc(NC(=O)c3cccc(S(=O)(=O)N4CCOCC4)c3)s2)c1" ?
Solution: -1.82

Exercise: What measured inhibition goes with "CN(C)c1ccc(/C(=N\O)c2ccccc2)cc1" ?
Solution: 0.13

---

Recorded viability by entry
assay: reversal of MRP1-mediated doxorubicin resistance, pilot screen, H69AR cells, doxorubicin co-treatment (AID 601); conditions: H69AR cells + 2 uM doxorubicin, CellTiter-Glo, 72 h; measured here: viability with 2 uM doxorubicin; at 10 µM; stronger effect = lower value
The reply should contain only the number, in %.

O=c1[nH]c2c(s1)C(c1ccco1)C1C3CCC(C3)C1S2 (centres undefined); 89.3
Cc1ccc(S(=O)(=O)NCCN2CCOCC2)cc1C; 91.3
COc1ccc(OC)c(S(=O)(=O)Nc2ccc(C(N)=O)cc2)c1; 88.4

Exercise: What measured viability goes with C=CCN1C(=O)C2(c3ccccc31)C1CCCC=C1C(C#N)=C(N)C2(C#N)C#N (centres undefined) ?
Solution: 90.3

Provenance of the data: PubChem BioAssay
